Test system: OVCAR-8
Test: NCI tumour cell line growth inhibition, 48 h
Activity calls are given as the source filed them. Cut-off read from the data, not from the text of the source: active = GI50 up to about 1.1 µM and inactive = higher.
endpointName: GI50

// COc1cccc(-c2nc(N)c(C#N)c3c2CCS(=O)(=O)c2ccc(C)cc2-3)c1 : GI50 value = 26.1 µM (inactive)

// C#CC(O)/C=C/CCCCCCC#CC/C=C\CC#CCCCCCCCCC(O)C#C (stereo not given) : GI50 value = 1.91 µM (inactive)

// CC(=O)NC1C(OCc2ccccc2)OC(CO)C(O)C1OCC(=O)NC(C)C(=O)NC(CCC(=O)NCCCCNc1ccc([N+](=O)[O-])c2[nH]c3ccccc3c(=O)c12)C(N)=O (stereo not given) : GI50 value = > 100 µM (inactive)

// CN(C)c1n/c(=N/Cc2ccccn2)ss1 : GI50 value = > 5.3 µM (inactive)

// COc1ccc(OC)c2c(C)ccnc12 : GI50 value = 14.9 µM (inactive)

// NC1CC(=O)c2csc(Br)c21 (stereo not given) : GI50 value = 16.6 µM (inactive)

// CCOc1ccc(/C=C2\N=C(c3ccccc3)OC2=O)cc1 : GI50 value = > 100 µM (inactive)

// C=C(Cl)C(Cl)(CCl)CCC(Br)C(C)(C)Br (stereo not given) : GI50 value = > 10 µM (inactive)

// O=c1[nH]c2c(O)cccc2c2cc3c(c(O)c12)OCO3 : GI50 value = 23.6 µM (inactive)

// CCOc1cc2c(cc1O)CC[C@@H]1[C@@H]2CC[C@]2(C)[C@@H](O)CC[C@@H]12 : GI50 value = 0.109 µM (active)

// CCCC(=O)OCC1OC(n2cc(F)c(=O)[nH]c2=O)C(F)C1O (stereo not given) : GI50 value = > 38.5 µM (inactive)

// O=C(CCN1CCCCC1)Nc1ccc2c(c1)C(=O)c1ccc(NC(=O)CCN3CCCCC3)cc1C2=O : GI50 value = 5.57 µM (inactive)

// CCOC(=O)C(=Cc1ccc(Oc2ccccc2)cc1)C(=O)OCC : GI50 value = 2.19 µM (inactive)

// O=C1C=C(c2ccccc2)OC1C1Sc2ccccc2NC1=O (stereo not given) : GI50 value = 9.31 µM (inactive)

// CC(=O)c1ccc(N2C(=O)C3c4[nH]c5ccccc5c4C4CCC(C(C)(C)C)CC4C3C2=O)cc1 (stereo not given) : GI50 value = 22.4 µM (inactive)

// Cc1ccc2nc3c(Cl)cc(=O)cc-3sc2c1 : GI50 value = 21.2 µM (inactive)

// NC(=O)Cc1ncn(-c2ccccc2)n1 : GI50 value = > 100 µM (inactive)

// CCOC(=O)c1nnc2c(C(=O)OCC)c3ccccc3n2c1N : GI50 value = 5.16 µM (inactive)

// CC(=O)OC1(C)C(=O)OC1(C)C(C)=O (stereo not given) : GI50 value = > 100 µM (inactive)

// C=C1CC[C@@H](CCC2CCC3(OC2)O[C@]2(O)CC[C@@]3(C)OC2(C)C)C(C)(C)[C@H]1C/C=C1\CCOC1=O (stereo not given in full) : GI50 value = 15.3 µM (inactive)
